Molecular target: UniProt P42680
Sequence (P42680 whole entry): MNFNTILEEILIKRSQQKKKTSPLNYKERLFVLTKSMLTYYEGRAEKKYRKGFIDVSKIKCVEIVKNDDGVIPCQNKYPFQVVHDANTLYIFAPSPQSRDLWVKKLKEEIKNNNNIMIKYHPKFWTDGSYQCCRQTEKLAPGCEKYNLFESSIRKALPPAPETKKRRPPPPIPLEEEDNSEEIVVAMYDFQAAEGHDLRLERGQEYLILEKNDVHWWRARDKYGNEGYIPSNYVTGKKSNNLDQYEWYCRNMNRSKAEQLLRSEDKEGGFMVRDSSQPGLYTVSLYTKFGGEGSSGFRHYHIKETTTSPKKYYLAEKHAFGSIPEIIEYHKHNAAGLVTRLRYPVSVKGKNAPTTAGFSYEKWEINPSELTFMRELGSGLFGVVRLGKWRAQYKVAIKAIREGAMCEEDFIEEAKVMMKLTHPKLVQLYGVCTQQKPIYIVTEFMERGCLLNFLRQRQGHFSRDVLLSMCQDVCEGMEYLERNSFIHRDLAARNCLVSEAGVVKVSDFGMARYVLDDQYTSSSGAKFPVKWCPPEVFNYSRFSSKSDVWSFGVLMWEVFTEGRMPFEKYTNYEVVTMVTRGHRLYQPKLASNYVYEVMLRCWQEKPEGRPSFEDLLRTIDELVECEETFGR
Assay: Inhibition of recombinant human N-terminal GST-fused TEC catalytic domain (359 to 631 residues) expressed in baculovirus expression system using biotin-labelled STK/TK as substrate measured after 1 hr by HTRF assay

SMILES_INPUT | EXPERIMENTAL_SYSTEM | IC50 [µM]
COc1cc2cn[nH]c2cc1-c1ccc(F)c2c(N)c(C(N)=O)cnc12 | UniProt P42680 | 0.227
